target: T1, human insulin receptor (human, UniProt P06213 28-1382); test: competition with 125I-insulin, receptor membranes, SPA
T1 construct: whole, on cells
pIC50: −log10 of the molar value.
valueType: pIC50

binder	valueType	measurement
IGF1(Y^B16L^B17)(AlaPro)^A-1,0 (ligand) chain 1: APGIVDECCFRSCDLRRLEMYCA chain 2: GPETLCGAELVDALYLVCGDRGFYFNKPT	pIC50	8.71
